FYI, the data here is from PubChem BioAssay.

test: CREB reporter modulators under forskolin, primary screen, cell-based, PC12, CRE-LacZ reporter, forskolin-stimulated (AID 1146); details: luminescence, 4.5 h, higher = more signal, called active from +8 up or from −8 down;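 note: PC12 cells with 6xCRE LacZ reporter stimulated by forskolin 10 µM; beta-galactosidase reporter signal reflecting CREB driven transcription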
RECORDED ENDPOINT: z-score
API doc: respond with a numeric literal and nothing else, no unit.

Prompt: Recorded z-score of `[N-]=[N+]=NCc1ccccc1[C@@H]1OC(c2ccc(OCCCO)cc2)=N[C@]1(Cc1ccccc1N=[N+]=[N-])C(=O)NCc1ccccc1` , please.
Completion: -1.02

Prompt: Let us now turn to CS(=O)(=O)CCOC(=O)C1=CC(c2ccc(CO)cc2)=CC(C2CC2)N(Cc2cc3c(cc2Br)OCO3)C=C1C(=O)OCCS(C)(=O)=O (stereo not given)
Completion: -2.41

Prompt: And `COCCOC(=O)N1C(=O)[C@@]2(c3cc(C#CC4(O)CCCCCC4)ccc31)[C@H](C(=O)N1CCCCCCC1)[C@H]1C(=O)O[C@H](c3ccccc3)[C@H](c3ccccc3)N1[C@@H]2c1ccccc1OCCO` ?
Completion: -0.551

Prompt: Try the molecule `COC(=O)[C@@]1(Cc2ccc(OC)cc2)[C@H]2c3cc(C(=O)N4CCCC4)n(CCc4c[nH]c5cc(F)ccc45)c3C[C@H]2CN1C(=O)c1ccccc1`
Completion: 0.199

Prompt: Try `COC(=O)C(CC#Cc1ccc2c(c1)[C@]1(C(=O)N2)[C@H](c2ccc(OCCO)cc2)N2[C@H](c3ccccc3)[C@H](c3ccccc3)OC(=O)[C@H]2[C@@H]1C(=O)NC[C@H](O)c1ccccc1)C(=O)OC` next.
Completion: -0.926

Prompt: Try the molecule `COCCOC(=O)N1C(=O)[C@@]2(c3ccccc31)[C@H](C(=O)Nc1nc3ccccc3s1)[C@H]1C(=O)O[C@H](c3ccccc3)[C@H](c3ccccc3)N1[C@@H]2c1ccc(OCCO)cc1`
Completion: -0.523

Prompt: Try this molecule too: O=C(OCCF)C1=CCC(c2cccc(Cl)c2)O1 (stereo not given)
Completion: 0.351

Prompt: Again, but for `COCC(=C=CC[C@@H](O)c1ccc(CO)o1)CCO`
Completion: -0.845

Prompt: Query `CC(C)(C)OC(=O)CC[C@@]1(C(=O)O)N=C(c2ccc(OCCCO)cc2)O[C@@H]1c1ccccc1N=[N+]=[N-]` next
Completion: -0.406

Prompt: Same question for `O=c1cccc(CCc2ccccc2)o1` please.
Completion: 1.03

Prompt: Also `CC(C)NC(=O)[C@@]1(Cc2ccccc2I)c2ccccc2C(=O)N(Cc2ccccc2)[C@H]1c1ccc(CO)cc1` ?
Completion: 0.0359

Prompt: Would you mind doing `COc1cc(CO)ccc1OC(C)=O` as well?
Completion: -0.874

Prompt: And the next one, `CC(C)C(=C=CC[C@H](O)c1ccccc1OCCO)C[C@H](O)c1ccccn1` ?
Completion: 0.0622

Prompt: And the next one, `O=C1O[C@@H](c2ccccc2)[C@@H](c2ccccc2)N2[C@@H](c3ccc(O)cc3)[C@]3(C(=O)Nc4ccc(C#CC5(O)CCCCCC5)cc43)[C@@H](C(=O)N3CCCCCCC3)[C@H]12` ?
Completion: -0.981

Prompt: Same lookup for COc1ccc(C(O)C2C=CC3C(=O)N(c4ccccc4)C(=O)C3N2Nc2ccc([N+](=O)[O-])cc2)cc1OCc1ccccc1 (stereo not given) , please.
Completion: -0.588

Prompt: Continue with `CN(C)CCCNC(=O)[C@@]1(Cc2ccccc2I)c2ccccc2C(=O)N(Cc2ccccc2C(F)(F)F)[C@H]1c1ccc(CO)cc1`
Completion: -0.742

Prompt: Then what about the molecule `CC(C)NC(=O)[C@@H]1c2ccccc2C(=O)N(Cc2ccccc2)[C@H]1c1ccc(CO)cc1` ?
Completion: 0.669

Prompt: Follow-up entry: `Cc1ccc([C@H]2C(C(=O)O)=C[C@@H](C)N2S(=O)(=O)c2ccc(C)cc2)cc1`
Completion: 1.32

Prompt: Could you do the same for COc1ccc(C(O)C2C=CC3C(=O)N(C)C(=O)C3N2Nc2ccccc2)cc1OCc1ccccc1 (stereo not given) , please?
Completion: -0.389

Prompt: Subsequent entry: O=C1OCCC/C=C\[C@H]2OC34C=CCN(Cn5nnc6ccccc65)C(=O)[C@H]3N(CCCCCO)C(=O)[C@@H]4C12 (stereo not given in full)
Completion: -0.26

Prompt: Next record, please: `CCCCC=C[C@@H](NC(=O)c1ccc(C(=O)OC)cc1)c1ccccc1`
Completion: 1.11

Prompt: Another molecule to check: `Cc1ccc([C@H]2[C@H](C(=O)O)[C@H](Sc3ccccc3)[C@@H](C(C)C)N2S(=O)(=O)c2ccc(C)cc2)cc1`
Completion: -0.728

Prompt: Next record, please: `O=C(O)[C@H]1C[C@H]2C(=O)NCC(=O)N2[C@H]1c1ccc(O)cc1`
Completion: -0.108

Prompt: Consider next the molecule Cc1ccccc1C(O)C1C=CC2C(=O)N(C)C(=O)C2N1N1CCCCC1 (stereo not given) in the same way.
Completion: -0.0415

Prompt: Please answer likewise for `C=CCOC(=O)[C@@H]1[C@H]2C(=O)O[C@H](c3ccccc3)[C@H](c3ccccc3)N2[C@H](c2ccc(OCCOC(=O)[C@@H]3C[C@@H]4C(=O)NCC(=O)N4[C@@H]3c3cccc(OCCO)c3)cc2)[C@@]12C(=O)Nc1ccc(I)cc12`
Completion: -0.844

Prompt: Also, `COCCOC(=O)N1C(=O)[C@@]2(c3cc(C#CC4=CCCCC4)ccc31)[C@H](C(=O)N1CCc3cc(OC)c(OC)cc3C1)[C@H]1C(=O)O[C@H](c3ccccc3)[C@H](c3ccccc3)N1[C@@H]2c1ccccc1OCCO` please.
Completion: -1.14

Prompt: Subsequent entry: CCN(CC)c1ccc(N2CC=CC34O[C@@H]5C=CCCOC(=O)C5[C@H]3C(=O)N(CCCCCO)[C@@H]4C2=O)cc1 (stereo not given in full)
Completion: -0.686

Prompt: Try this molecule too: `O=C/C=C/c1ccc2c(c1)OCO2`
Completion: 0.106

Prompt: Param item: CCOC(=O)[C@H]1C[C@H]2O[C@@]23C[C@H]1C(=O)N1CCCC1[C@@H]3O[Si](C)(C)C(C)(C)C (stereo not given in full)
Completion: -0.852

Prompt: Request: O=C1OCCC=C[C@H]2OC34C=CCN(c5ccc6ccccc6c5)C(=O)[C@H]3N(CCCCCO)C(=O)[C@@H]4C12 (stereo not given in full)
Completion: -0.206
